- Test system: A498 renal
- ASSAY_REMARKS: NCI-60 one-dose screen, 48 h (100 = growth as untreated, 0 = no growth, -100 = all killed)
- CONDITION: 10 µM unless noted
This is part of a sample that, as a whole, favours compounds with a hit. Of some 83,000 tested, about 20% had one in any assay.
Use growth to assign classes; range list: bucket A = under 60%, bucket B = from 60% up to 90%, bucket C = 90% and over

Worked set:
{"COMPOUND": "COc1ccc(C2CC(c3cc(OC)c(OC)c(OC)c3)=NN2c2ccc(S(N)(=O)=O)cc2)cc1 (centres undefined)", "GROUP": "bucket A"}
{"COMPOUND": "COc1cc(CNCCCN2C(=O)c3ccc4c5c(ccc(c35)C2=O)C(=O)N(CCCNCc2cc(OC)c(OC)c(OC)c2)C4=O)cc(OC)c1OC", "GROUP": "bucket A"}
{"COMPOUND": "CCCCc1ccc(NC(=O)C(F)(F)F)cc1", "GROUP": "bucket B"}
{"COMPOUND": "Cc1nc2cc(Nc3nc(NCCO)nc(Nc4ccc(F)cc4)n3)ccc2n1Cc1ccccc1", "GROUP": "bucket B"}

Req: Using the reported growth, which band applies to Cc1c(C)n(CC(O)CNC2CCCCC2C)c2ccccc12 (centres undefined) ?
Resp: bucket B

Req: Using the reported growth, which band applies to CCOC(=O)c1sc(NC(=O)CN2CCC(Cc3ccccc3)CC2)nc1C ?
Resp: bucket C

Req: Using the reported growth, which band applies to COC(=O)[C@@H]1CCCN1C(=O)[C@@H]1CCCN1C(=O)[C@@H](Cc1c[nH]c2ccccc12)NC(=S)Nc1cc(C(F)(F)F)cc(C(F)(F)F)c1 ?
Resp: bucket C

Req: Using the reported growth, which band applies to Nc1cccc2c(=S)c3ccccc3[nH]c12 ?
Resp: bucket B

Req: Using the reported growth, which band applies to COc1cc(/C=C2\C(=O)Nc3ccccc32)cc(OC)c1O ?
Resp: bucket A

---

Below, each entry is listed with its recorded growth.
- Test system: M14 melanoma
- ASSAY_REMARKS: NCI-60 one-dose screen, 48 h (100 = growth as untreated, 0 = no growth, -100 = all killed)
- CONDITION: 10 µM unless noted
This is part of a sample that, as a whole, favours compounds with a hit. Of some 83,000 tested, about 20% had one in any assay.
The figure you give is taken to be in %; do not add the unit.

Worked set:
{"SMILES_DATA": "O=C1c2ccccc2C(=O)c2c(Nc3ccc(CCO)cc3)ccc(O)c21", "UNIT_LABEL": "%", "ENDPOINT_RESULT": 80.3}
{"SMILES_DATA": "COc1cc(/C=C2\\C(=O)Nc3ccccc32)cc(OC)c1O", "UNIT_LABEL": "%", "ENDPOINT_RESULT": 53.6}

# input for lookup
Req: Look up growth: CC1(C)N=C(N)N=C(N)N1c1cccc(OCCOc2cccc([N+](=O)[O-])c2)c1
Resp: 64.1

---

- Test system: UACC-62 melanoma
- ASSAY_REMARKS: NCI-60 one-dose screen, 48 h
- CONDITION: 10 µM unless noted
Compounds without any hit were thinned out: in the full panel of roughly 83,000, 20% have a hit. Activity calls are given as the source filed them. The calls were made as follows: active = growth percent below 10; inactive = the rest.
Response enum: class 1 (active), class 0 (inactive)

Worked set:
{"MOLECULE": "COc1ccc(-c2c3c(N)c4c(nc3nc3c2c(C)nn3-c2ccccc2)CCCC4)cc1", "GROUP": "class 0"}
{"MOLECULE": "O=C1c2ccccc2-c2cn(Cc3ccccc3)c3cccc(c23)C1c1cccnc1 (stereo not given)", "GROUP": "class 0"}
{"MOLECULE": "Cc1ccc(C(=O)Nc2ccccc2N)cc1", "GROUP": "class 0"}
{"MOLECULE": "NC(=O)c1cccc(-n2ccc3cc(NC(=O)Nc4ccc(Cl)c(Cl)c4)ccc32)n1", "GROUP": "class 0"}
{"MOLECULE": "CCC(=O)Nc1nnc(Cc2ccc(OC)c(OC)c2)s1", "GROUP": "class 1"}

Req: What did the test return for COC(=O)c1c2c(c(C)[n+]([O-])c1C)C(=O)C=C(NCc1cccc(Cl)c1)C2=O ?
Resp: class 1

Req: What did the test return for CN1CCN(C)c2cncc(Br)c2C1=O ?
Resp: class 0

Req: What did the test return for O=c1nc(NO)[nH]c(=O)n1Cc1ccccc1 ?
Resp: class 0

Req: What did the test return for O=C1N/C(=C\c2ccccc2)c2ncccc21 ?
Resp: class 0

Req: What did the test return for CN(C)c1ccc(/C=C(\C#N)c2cc3ccccc3n2C)cc1 ?
Resp: class 0

Req: What did the test return for COC(=O)c1c2c(c(C)[n+]([O-])c1C)C(=O)C=C(NCc1ccc(F)c(Cl)c1)C2=O ?
Resp: class 1

Req: What did the test return for CC(=O)N(CC(O)CO)c1c(I)c(C(=O)NCCO)c(I)c(C(=O)NCC(O)CO)c1I (stereo not given) ?
Resp: class 0

Req: What did the test return for O=C(NC1CC1)c1cc2n(n1)CC(c1ccccc1)N2 (stereo not given) ?
Resp: class 0

Req: What did the test return for Cc1oc2c(c1C(=O)N1CC[C@@H](N)C1)C(=O)c1c(c(O)c3ccccc3c1O)C2=O ?
Resp: class 0

Req: What did the test return for O=C1NC(=O)C(CSc2ccccc2)(c2ccccc2)N1 (stereo not given) ?
Resp: class 0

Req: What did the test return for COc1cccc(OC(=O)c2ccccc2)c1OC(=O)c1ccccc1 ?
Resp: class 0

Req: What did the test return for COc1cc(OCc2cccc(-c3ccc(C(O)c4nccs4)cc3)c2C)cc(OC)c1C=O (stereo not given) ?
Resp: class 1

Req: What did the test return for Clc1ccccc1Nc1ccc2nnc(-c3ccncc3)n2n1 ?
Resp: class 0

Req: What did the test return for C=C1C(=O)OC2/C=C(/C)C3(O)OC(C)(CC(OC(=O)C(C)C)C12)CC3OC(C)=O (stereo not given) ?
Resp: class 1

Req: What did the test return for CCOC(=O)c1cc2c(n(C)c1=O)-c1cnn(-c3ccc(OC)cc3)c1CC2 ?
Resp: class 0
